# ASSAY SUMMARY: Inhibition of ABCB1 (unknown origin) expressed in human A2780 ADR cells assessed as potentiation of daunorubicin-induced cytotoxicity measured after 72 hrs by MTT assay
MEASURE: pEC50
pEC50 is a log-scale quantity: -log10 of the concentration expressed in molar.

Record `N#Cc1ccc(Nc2cc(Nc3ccccc3O)nc(-c3ccccc3)n2)cc1` . Reported pEC50: 4.46

###

Measured EC50, listed per entry.
# ASSAY SUMMARY: Inhibition of ABCG2 (unknown origin) expressed in MDCK-II cells assessed as potentiation of SN-38-induced cytotoxicity measured after 72 hrs by MTT assay
Respond with the bare value in nM.

CC(C)Nc1cc(Nc2ccc(C#N)cc2)nc(-c2ccccc2)n1 :: 18

Record `N#Cc1ccc(Nc2cc(NCc3ccncc3)nc(-c3ccccc3)n2)cc1` . Reported EC50: 73

Record `N#Cc1ccc(Nc2cc(NCCCc3ccccc3)nc(-c3ccccc3)n2)cc1` . Reported EC50: 67

Record `CCCCNc1cc(Nc2ccc(C#N)cc2)nc(-c2ccccc2)n1` . Reported EC50: 30

Record `N#Cc1ccc(Nc2cc(Nc3ccccc3)nc(-c3ccccc3)n2)cc1` . Reported EC50: 44
